# assaySystem: Peroxisome proliferator-activated receptor gamma (Homo sapiens)
# Sequence (P37231 whole entry, the tested form may be a part): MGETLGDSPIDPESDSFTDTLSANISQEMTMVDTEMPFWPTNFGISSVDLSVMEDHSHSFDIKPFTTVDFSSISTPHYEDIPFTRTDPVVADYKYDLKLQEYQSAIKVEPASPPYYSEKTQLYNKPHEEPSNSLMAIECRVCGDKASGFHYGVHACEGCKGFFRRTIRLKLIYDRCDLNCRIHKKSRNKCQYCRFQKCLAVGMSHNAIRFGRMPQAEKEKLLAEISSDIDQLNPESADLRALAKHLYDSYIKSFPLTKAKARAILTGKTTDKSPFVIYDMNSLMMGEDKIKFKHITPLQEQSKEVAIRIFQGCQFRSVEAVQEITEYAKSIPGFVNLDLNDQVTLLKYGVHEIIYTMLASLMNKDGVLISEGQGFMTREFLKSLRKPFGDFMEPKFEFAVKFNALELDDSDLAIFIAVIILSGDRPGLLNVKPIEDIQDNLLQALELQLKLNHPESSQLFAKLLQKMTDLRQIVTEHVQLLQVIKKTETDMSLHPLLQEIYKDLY
# assayName: Agonist activity at GAL4 tagged human PPARgamma ligand binding domain expressed in HEK293 cells by luciferase reporter gene assay
measureName: pEC50
Bear in mind: pEC50 is minus log10 of a mol/L concentration; give just that figure.

Worked cases, answers included:
CCOC(=O)N1C[C@H](Cc2cccc(OCCc3nc(-c4ccccc4)oc3C)c2)[C@@H](C(=O)O)C1 (racemic) ... 5.55
Cc1oc(-c2ccccc2)nc1CCOc1cccc(C[C@H]2CN(C(=O)Oc3ccccc3)C[C@@H]2C(=O)O)c1 (racemic) ... 5.21
COc1ccc(OC(=O)N2[C@H](C(=O)O)CC[C@H]2c2ccc(OCCc3nc(-c4ccccc4)oc3C)cc2)cc1 ... 7.30

Task: Entry under review: CCOC(=O)N1C[C@@H](CCc2cccc(OCCc3nc(-c4ccccc4)oc3C)c2)[C@@H](C(=O)O)C1 (racemic) . Reported pEC50?
Result: 6.15

Task: Entry under review: Cc1oc(-c2ccccc2)nc1CCOc1cccc(C[C@@H]2CN(c3ccccc3)C[C@@H]2C(=O)O)c1 . Reported pEC50?
Result: 5.46

###

# assaySystem: Peroxisome proliferator-activated receptor alpha (Homo sapiens)
# Sequence (Q07869 whole entry): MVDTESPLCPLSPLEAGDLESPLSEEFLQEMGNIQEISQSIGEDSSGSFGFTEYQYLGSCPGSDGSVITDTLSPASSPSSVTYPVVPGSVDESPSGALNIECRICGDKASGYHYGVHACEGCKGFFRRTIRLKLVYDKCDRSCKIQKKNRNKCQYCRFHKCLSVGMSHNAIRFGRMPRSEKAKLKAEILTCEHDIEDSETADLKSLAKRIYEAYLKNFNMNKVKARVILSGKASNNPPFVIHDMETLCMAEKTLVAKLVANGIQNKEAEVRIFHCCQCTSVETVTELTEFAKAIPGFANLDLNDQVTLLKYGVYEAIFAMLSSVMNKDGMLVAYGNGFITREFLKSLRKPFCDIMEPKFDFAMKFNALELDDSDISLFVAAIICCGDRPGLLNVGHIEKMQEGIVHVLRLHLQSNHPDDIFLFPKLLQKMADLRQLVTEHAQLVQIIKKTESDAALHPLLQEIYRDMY
# assayName: Agonist activity at GAL4 tagged human PPARalpha ligand binding domain expressed in HEK293 cells by luciferase reporter gene assay
# Format: cell-based
# conditionDetails: read-out: EC50
Below, each entry is listed alongside its reported pEC50.
Bear in mind: pEC50 is minus log10 of a mol/L concentration; give just that figure.

Worked cases, answers included:
Cc1oc(-c2ccccc2)nc1CCOc1ccc(C[C@@H]2CN(c3nccc(C(F)(F)F)n3)C[C@@H]2C(=O)O)cc1 ... 7.05
Cc1ccnc(N2C[C@@H](Cc3ccc(OCCc4nc(-c5ccccc5)oc4C)cc3)[C@@H](C(=O)O)C2)n1 (racemic) ... 6.77
Cc1oc(-c2ccccc2)nc1CCOc1cccc(C[C@@H]2CN(C(=O)Oc3ccccc3)C[C@@H]2C(=O)O)c1 (racemic) ... 8.00
Cc1oc(-c2ccccc2)nc1CCOc1cccc(C[C@@H]2CN(c3nccc(C(F)(F)F)n3)C[C@@H]2C(=O)O)c1 ... 7.85

Task: Entry under review: Cc1oc(-c2ccccc2)nc1CCOc1ccc(C[C@@H]2CN(c3nc4ccccc4o3)C[C@@H]2C(=O)O)cc1 (racemic) . Reported pEC50?
Result: 5.61

###

# assaySystem: Peroxisome proliferator-activated receptor gamma (Homo sapiens)
# assayName: Agonist activity at GAL4 tagged human PPARgamma ligand binding domain expressed in HEK293 cells by luciferase reporter gene assay
Below, each entry is listed alongside its reported pEC50.
Bear in mind: pEC50 is minus log10 of a mol/L concentration; give just that figure.

Task: Entry under review: CCOC(=O)N1C[C@@H](Cc2cccc(OCCc3nc(-c4ccccc4)oc3C)c2)[C@@H](C(=O)O)C1 (racemic) . Reported pEC50?
Result: 6.12

###

# assaySystem: Peroxisome proliferator-activated receptor alpha (Homo sapiens)
# Sequence (Q07869 whole entry): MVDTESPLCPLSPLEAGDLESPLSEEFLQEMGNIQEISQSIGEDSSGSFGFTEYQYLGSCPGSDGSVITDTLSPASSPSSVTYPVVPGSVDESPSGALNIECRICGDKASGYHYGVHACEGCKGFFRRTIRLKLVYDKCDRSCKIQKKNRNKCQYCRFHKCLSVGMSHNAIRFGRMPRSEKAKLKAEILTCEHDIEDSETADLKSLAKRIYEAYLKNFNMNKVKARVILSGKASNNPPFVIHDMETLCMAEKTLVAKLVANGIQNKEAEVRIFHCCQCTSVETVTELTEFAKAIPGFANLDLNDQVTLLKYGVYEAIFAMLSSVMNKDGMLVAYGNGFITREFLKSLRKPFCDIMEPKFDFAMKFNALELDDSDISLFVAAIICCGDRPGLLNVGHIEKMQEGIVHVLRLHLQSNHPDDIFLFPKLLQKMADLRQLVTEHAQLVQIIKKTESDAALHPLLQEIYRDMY
# assayName: Agonist activity at GAL4 tagged human PPARalpha ligand binding domain expressed in HEK293 cells by luciferase reporter gene assay
# Format: cell-based
# conditionDetails: read-out: EC50
Below, each entry is listed alongside its reported EC50.
Express your answer in nM, writing the number without its unit.

Worked cases, answers included:
Cc1oc(-c2ccccc2)nc1CCOc1ccc(C[C@@H]2CN(c3ncccn3)C[C@@H]2C(=O)O)cc1 (racemic) ... 2910
CCOC(=O)N1C[C@@H](Cc2cccc(OCCc3nc(-c4ccccc4)oc3C)c2)[C@@H](C(=O)O)C1 (racemic) ... 10
Cc1oc(-c2ccccc2)nc1CCOc1ccc(CC[C@@H]2CN(C(=O)Oc3ccccc3)C[C@@H]2C(=O)O)cc1 (racemic) ... 10

The record that follows has no EC50 shown yet.
Task: Entry under review: CCOC(=O)N1C[C@H](CC(=O)O)[C@H](c2cccc(OCCc3nc(-c4ccccc4)oc3C)c2)C1 (racemic) . Reported EC50?
Result: 1130

###

# assaySystem: Peroxisome proliferator-activated receptor alpha (Homo sapiens)
# assayName: Binding affinity to PPARalpha (unknown origin) using fluorescein-tagged dual PPARalpha/gamma activator by homogeneous fluorescence polarization binding assay
measureName: pIC50
Bear in mind: pIC50 is minus log10 of a mol/L concentration; give just that figure.

CCOC(=O)N1C[C@H](Cc2cccc(OCCc3nc(-c4ccccc4)oc3C)c2)[C@@H](C(=O)O)C1 (racemic) ... 5.67

The record that follows has no pIC50 shown yet.
Task: Entry under review: Cc1oc(-c2ccccc2)nc1CCOc1cccc(C[C@H]2CN(c3ccccc3)C[C@H]2C(=O)O)c1 . Reported pIC50?
Result: 6.49

###

# assaySystem: Peroxisome proliferator-activated receptor gamma (Homo sapiens)
Below, each entry is listed alongside its reported pIC50.
Bear in mind: pIC50 is minus log10 of a mol/L concentration; give just that figure.

Worked cases, answers included:
Cc1oc(-c2ccccc2)nc1CCOc1ccc(C[C@@H]2CN(c3nc(C(F)(F)F)co3)C[C@@H]2C(=O)O)cc1 (racemic) ... 7.30
CCOC(=O)N1C[C@H](CC(=O)O)[C@H](c2cccc(OCCc3nc(-c4ccccc4)oc3C)c2)C1 (racemic) ... 6.04
Cc1oc(-c2ccccc2)nc1CCOc1cccc(C[C@H]2CN(c3nccc(C(F)(F)F)n3)C[C@H]2C(=O)O)c1 ... 6.96
CCOC(=O)N1C[C@H](CC(=O)O)[C@@H](c2cccc(OCCc3nc(-c4ccccc4)oc3C)c2)C1 (racemic) ... 5.26
Cc1oc(-c2ccccc2)nc1CCOc1ccc(C[C@H]2CN(c3nccc(C(F)(F)F)n3)C[C@H]2C(=O)O)cc1 ... 5.82

The record that follows has no pIC50 shown yet.
Task: Entry under review: Cc1oc(-c2ccccc2)nc1CCOc1cccc(C[C@H]2CN(C(=O)Oc3ccccc3)C[C@H]2C(=O)O)c1 . Reported pIC50?
Result: 6.23

###

# assaySystem: Peroxisome proliferator-activated receptor alpha (Homo sapiens)
# assayName: Binding affinity to PPARalpha (unknown origin) using fluorescein-tagged dual PPARalpha/gamma activator by homogeneous fluorescence polarization binding assay
measureName: IC50

Worked cases, answers included:
Cc1oc(-c2ccccc2)nc1CCOc1cccc(CC[C@H]2CN(C(=O)Oc3ccccc3)C[C@@H]2C(=O)O)c1 (racemic) ... > 10 µM
Cc1oc(-c2ccccc2)nc1CCOc1ccc(C[C@H]2CN(c3nccc(C(F)(F)F)n3)C[C@H]2C(=O)O)cc1 ... > 10 µM
CCOC(=O)N1C[C@H](CC(=O)O)[C@@H](c2cccc(OCCc3nc(-c4ccccc4)oc3C)c2)C1 (racemic) ... > 10 µM
Cc1oc(-c2ccccc2)nc1CCOc1ccc([C@@H]2CN(C(=O)Oc3ccccc3)C[C@@H]2CC(=O)O)cc1 (racemic) ... > 15 µM

Task: Test system Peroxisome proliferator-activated receptor alpha (Homo sapiens); read-out IC50; what value for Cc1oc(-c2ccccc2)nc1CCOc1ccc(C[C@@H]2CN(c3nccc(C(F)(F)F)n3)C[C@H]2C(=O)O)cc1 ?
Result: > 50 µM
